Recorded IC50, one value per entry.
Assay: Cytotoxicity against human Hep3B2 cells after 72 hrs by MTS assay
Format: functional, cell-based, Hep 3B2
Settings: Hep3B
Assay readout: IC50 (µM)

>  <Structure>
COc1cc(=O)oc2c1[C@H](O[C@@H]1O[C@@H](C)[C@@H](C)c3oc(=O)cc(OC)c31)O[C@@H](C)[C@H]2C

>  <Result modifier>
>

>  <Reported>
100

$$$$
>  <Structure>
C[C@@]12CO[C@H](c3ccc(O)cc3)O[C@@H]1CC[C@@]1(C)[C@H]2CC[C@H]2C[C@@H]3C[C@@]21CC[C@]3(O)CO

>  <Result modifier>
=

>  <Reported>
14.8

$$$$
>  <Structure>
COc1cc(=O)oc2c1[C@H](O)O[C@@H](C)[C@H]2C

>  <Result modifier>
>

>  <Reported>
100

$$$$
>  <Structure>
COc1cc(=O)oc2c1[C@H](O[C@@H]1O[C@@H](C)[C@@H](C)c3oc(=O)cc(OC)c31)O[C@@H](C)[C@@H]2C

>  <Result modifier>
>

>  <Reported>
100

$$$$
>  <Structure>
CC(=O)OC[C@@]1(O)CC[C@]23C[C@H]1C[C@@H]2CC[C@H]1[C@]2(C)CO[C@H](c4ccc(O)cc4)O[C@@H]2CC[C@@]13C

>  <Result modifier>
=

>  <Reported>
7.3

$$$$
>  <Structure>
CC(=O)O[C@H]1C(=O)[C@@]2(C)[C@H]([C@H](OC(=O)c3ccccc3)[C@]3(O)C[C@H](OC(=O)[C@H](O)[C@@H](NC(=O)c4ccccc4)c4ccccc4)C(C)=C1C3(C)C)[C@]1(OC(C)=O)CO[C@@H]1C[C@@H]2O

>  <Result modifier>
=

>  <Reported>
1.6e-05

$$$$
>  <Structure>
COc1cc(=O)oc2c1[C@H](O[C@@H]1O[C@@H](C)[C@H](C)c3oc(=O)cc(OC)c31)O[C@@H](C)[C@@H]2C

>  <Result modifier>
=

>  <Reported>
57.5

$$$$

* * *

Tested on: PANC-1
Experiment: Cytotoxicity against human PANC1 cells after 72 hrs by MTS assay
Assay type: functional, cell-based
Details: PANC-1, 72 h
Listed compounds paired with reported IC50
Assay readout: IC50 (µM)

>  <Structure>
COc1cc(=O)oc2c1[C@H](O[C@@H]1O[C@@H](C)[C@@H](C)c3oc(=O)cc(OC)c31)O[C@@H](C)[C@H]2C

>  <Assay readout>
IC50

>  <Result modifier>
>

>  <Reported>
100

$$$$
>  <Structure>
COc1cc(=O)oc2c1[C@H](O[C@@H]1O[C@@H](C)[C@H](C)c3oc(=O)cc(OC)c31)O[C@@H](C)[C@@H]2C

>  <Assay readout>
IC50

>  <Result modifier>
>

>  <Reported>
100

$$$$
>  <Structure>
COc1cc(=O)oc2c1[C@H](O[C@@H]1O[C@@H](C)[C@@H](C)c3oc(=O)cc(OC)c31)O[C@@H](C)[C@@H]2C

>  <Assay readout>
IC50

>  <Result modifier>
>

>  <Reported>
100

$$$$
>  <Structure>
CC(=O)OC[C@@]1(O)CC[C@]23C[C@H]1C[C@@H]2CC[C@H]1[C@]2(C)CO[C@H](c4ccc(O)cc4)O[C@@H]2CC[C@@]13C

>  <Assay readout>
IC50

>  <Result modifier>
=

>  <Reported>
53.2

$$$$
>  <Structure>
CC(=O)O[C@H]1C(=O)[C@@]2(C)[C@H]([C@H](OC(=O)c3ccccc3)[C@]3(O)C[C@H](OC(=O)[C@H](O)[C@@H](NC(=O)c4ccccc4)c4ccccc4)C(C)=C1C3(C)C)[C@]1(OC(C)=O)CO[C@@H]1C[C@@H]2O

>  <Assay readout>
IC50

>  <Result modifier>
=

>  <Reported>
0.0011

$$$$
>  <Structure>
COc1cc(=O)oc2c1[C@H](O)O[C@@H](C)[C@H]2C

>  <Assay readout>
IC50

>  <Result modifier>
>

>  <Reported>
100

$$$$
>  <Structure>
C[C@@]12CO[C@H](c3ccc(O)cc3)O[C@@H]1CC[C@@]1(C)[C@H]2CC[C@H]2C[C@@H]3C[C@@]21CC[C@]3(O)CO

>  <Assay readout>
IC50

>  <Result modifier>
=

>  <Reported>
19.9

$$$$

* * *

Tested on: A-375
Experiment: Cytotoxicity against human A375 cells after 72 hrs by MTS assay
Assay type: functional, cell-based
Conditions: A-375, 72 h
Assay readout: IC50 (µM)

>  <Compound>
CC(=O)O[C@H]1C(=O)[C@@]2(C)[C@H]([C@H](OC(=O)c3ccccc3)[C@]3(O)C[C@H](OC(=O)[C@H](O)[C@@H](NC(=O)c4ccccc4)c4ccccc4)C(C)=C1C3(C)C)[C@]1(OC(C)=O)CO[C@@H]1C[C@@H]2O [PACLITAXEL]

>  <System>
A-375

>  <Assay readout>
IC50

>  <Result modifier>
=

>  <Reported>
0.0089

$$$$
>  <Compound>
C[C@@]12CO[C@H](c3ccc(O)cc3)O[C@@H]1CC[C@@]1(C)[C@H]2CC[C@H]2C[C@@H]3C[C@@]21CC[C@]3(O)CO [INFLATIN A]

>  <System>
A-375

>  <Assay readout>
IC50

>  <Result modifier>
=

>  <Reported>
47.3

$$$$
>  <Compound>
COc1cc(=O)oc2c1[C@H](O)O[C@@H](C)[C@H]2C [INFLATIN C]

>  <System>
A-375

>  <Assay readout>
IC50

>  <Result modifier>
>

>  <Reported>
100

$$$$
>  <Compound>
COc1cc(=O)oc2c1[C@H](O[C@@H]1O[C@@H](C)[C@@H](C)c3oc(=O)cc(OC)c31)O[C@@H](C)[C@@H]2C [INFLATIN E]

>  <System>
A-375

>  <Assay readout>
IC50

>  <Result modifier>
>

>  <Reported>
100

$$$$
>  <Compound>
CC(=O)OC[C@@]1(O)CC[C@]23C[C@H]1C[C@@H]2CC[C@H]1[C@]2(C)CO[C@H](c4ccc(O)cc4)O[C@@H]2CC[C@@]13C [INFLATIN B]

>  <System>
A-375

>  <Assay readout>
IC50

>  <Result modifier>
=

>  <Reported>
25.5

$$$$
>  <Compound>
COc1cc(=O)oc2c1[C@H](O[C@@H]1O[C@@H](C)[C@@H](C)c3oc(=O)cc(OC)c31)O[C@@H](C)[C@H]2C [INFLATIN D]

>  <System>
A-375

>  <Assay readout>
IC50

>  <Result modifier>
>

>  <Reported>
100

$$$$
>  <Compound>
COc1cc(=O)oc2c1[C@H](O[C@@H]1O[C@@H](C)[C@H](C)c3oc(=O)cc(OC)c31)O[C@@H](C)[C@@H]2C [INFLATIN F]

>  <System>
A-375

>  <Assay readout>
IC50

>  <Result modifier>
>

>  <Reported>
100

$$$$

* * *

System: A549
Assay: Cytotoxicity against human A549 cells after 72 hrs by MTS assay
Type: functional, cell-based
Settings: A549, 72 h
IC50 by entry:
Assay readout: IC50

>  <Structure>
COc1cc(=O)oc2c1[C@H](O[C@@H]1O[C@@H](C)[C@H](C)c3oc(=O)cc(OC)c31)O[C@@H](C)[C@@H]2C

>  <Reported>
> 100 µM

$$$$
>  <Structure>
CC(=O)O[C@H]1C(=O)[C@@]2(C)[C@H]([C@H](OC(=O)c3ccccc3)[C@]3(O)C[C@H](OC(=O)[C@H](O)[C@@H](NC(=O)c4ccccc4)c4ccccc4)C(C)=C1C3(C)C)[C@]1(OC(C)=O)CO[C@@H]1C[C@@H]2O

>  <Reported>
0.03 µM

$$$$
>  <Structure>
COc1cc(=O)oc2c1[C@H](O)O[C@@H](C)[C@H]2C

>  <Reported>
> 100 µM

$$$$
>  <Structure>
CC(=O)OC[C@@]1(O)CC[C@]23C[C@H]1C[C@@H]2CC[C@H]1[C@]2(C)CO[C@H](c4ccc(O)cc4)O[C@@H]2CC[C@@]13C

>  <Reported>
25 µM

$$$$
>  <Structure>
COc1cc(=O)oc2c1[C@H](O[C@@H]1O[C@@H](C)[C@@H](C)c3oc(=O)cc(OC)c31)O[C@@H](C)[C@@H]2C

>  <Reported>
> 100 µM

$$$$
>  <Structure>
C[C@@]12CO[C@H](c3ccc(O)cc3)O[C@@H]1CC[C@@]1(C)[C@H]2CC[C@H]2C[C@@H]3C[C@@]21CC[C@]3(O)CO

>  <Reported>
75.3 µM

$$$$
>  <Structure>
COc1cc(=O)oc2c1[C@H](O[C@@H]1O[C@@H](C)[C@@H](C)c3oc(=O)cc(OC)c31)O[C@@H](C)[C@H]2C

>  <Reported>
> 100 µM

$$$$
